Attribution: patent US8613931B2

Hi there, I'd appreciate the recorded Binding Capacity for every entry that follows.
Measurement Target: monoclonal antibody MV-004
Assay Comment: ELISA, peptide-BSA coated, MV-004
Condition Notes: scale: code
Write the value as a bare number.

Exam item: # get_value(readout='Binding Capacity', item= ELWHRAFC [p4665] )
Marked response: 2

Exam item: Report Binding Capacity for ERWHEKHC [p4418] please.
Marked response: 3

Exam item: Using the record for EVWHRHQC [p4417] , report its Binding Capacity.
Marked response: 2

Exam item: Recorded Binding Capacity for ELWHRYPC [p4420] , please?
Marked response: 2

Exam item: What value of Binding Capacity has been recorded for this entry: EVWHRLQC [p4419]
Marked response: 3
